Reference source for all entries: ChEMBL document CHEMBL2321779

Target: Indoleamine 2,3-dioxygenase 1 (Homo sapiens, UniProt P14902)
Sequence (P14902 whole entry, looked up): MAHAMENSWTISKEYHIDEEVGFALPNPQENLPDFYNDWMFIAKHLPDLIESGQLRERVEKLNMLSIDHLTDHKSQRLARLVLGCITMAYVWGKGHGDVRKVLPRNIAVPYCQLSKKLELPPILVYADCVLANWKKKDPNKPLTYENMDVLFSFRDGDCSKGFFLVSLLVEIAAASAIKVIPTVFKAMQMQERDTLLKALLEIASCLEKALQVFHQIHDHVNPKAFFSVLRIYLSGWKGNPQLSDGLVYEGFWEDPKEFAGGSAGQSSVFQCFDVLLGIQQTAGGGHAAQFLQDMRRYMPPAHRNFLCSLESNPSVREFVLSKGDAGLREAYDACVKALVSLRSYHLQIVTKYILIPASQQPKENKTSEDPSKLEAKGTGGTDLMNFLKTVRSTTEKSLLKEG
Experiment: Inhibition of human recombinant N-terminus 6X-histidine-tagged indoleamine 2,3-dioxygenase expressed in Escherichia coli assessed as inhibition of L-tryptophan to N-formylkynurenine formation measured as residual enzyme activity at 0.1 uM incubated for 10 mins prior to substrate addition measured …
quantity.measured: residual activity (%)

COC(=O)c1c2nc3cc(CO)ccc3oc-2cc(=O)c1N = 95
Cc1ccc2oc3cc(=O)c(N)cc-3nc2c1 = 99
Nc1cc2nc3c(O)cccc3oc-2cc1=O = 100
Nc1c(C(=O)O)c2nc3c(C(=O)O)cccc3oc-2cc1=O = 71
Cc1c2nc3c(C)cccc3oc-2cc(=O)c1N = 98
CC(=O)Nc1cc2nc3c(O)cccc3oc-2cc1=O = 100
